- Organism: Rattus norvegicus
- assay notes: Open TG-GATES - Regimen: Single
- Format: toxicity, organism-based, Sprague-Dawley
- Parameters: regimen Single, gender Male, age 6 weeks
- measurement context: in vivo, po, 300 mg/kg, 9 h, tissue Blood, route gavage, dose level Middle

- compound: "NC(N)=Nc1nc(CSCCC(N)=NS(N)(=O)=O)cs1 [FAMOTIDINE]"
  Mono [%]: 2.4
- compound: "COC1=CC(=O)C[C@@H](C)[C@]12Oc1c(Cl)c(OC)cc(OC)c1C2=O [GRISEOFULVIN]"
  Mono [%]: 2.6
- compound: "CCOC(=O)CCC(=O)O[C@H]1[C@H](O[C@@H]2[C@@H](C)[C@H](O[C@H]3C[C@@](C)(OC)[C@@H](O)[C@H](C)O3)[C@@H](C)C(=O)O[C@H](CC)[C@@](C)(O)[C@H](O)[C@@H](C)C(=O)[C@H](C)C[C@@]2(C)O)O[C@H](C)C[C@@H]1N(C)C [ERYTHROMYCIN ETHYLSUCCINATE]"
  Mono [%]: 2.6
- compound: "COc1ccc2[nH]c([S+]([O-])Cc3ncc(C)c(OC)c3C)nc2c1 (centres undefined) [OMEPRAZOLE]"
  Mono [%]: 3.2

----------
Let's look at some compounds and their measured APTT.
- Organism: Rattus norvegicus
- assay notes: Open TG-GATES - Regimen: Single
- Assay type: toxicity, organism-based, Sprague-Dawley
- Set-up: regimen Single, gender Male, age 6 weeks
- measurement context: in vivo, po, 100 mg/kg, 24 h, tissue Blood, route gavage, dose level Low

- compound: "COc1ccc2[nH]c([S+]([O-])Cc3ncc(C)c(OC)c3C)nc2c1 (centres undefined)"
  units of measure: "s"
  APTT: 19.3
- compound: "NC(N)=Nc1nc(CSCCC(N)=NS(N)(=O)=O)cs1"
  units of measure: "s"
  APTT: 19.8
- compound: "COC1=CC(=O)C[C@@H](C)[C@]12Oc1c(Cl)c(OC)cc(OC)c1C2=O"
  units of measure: "s"
  APTT: 19.6
- compound: "CCOC(=O)CCC(=O)O[C@H]1[C@H](O[C@@H]2[C@@H](C)[C@H](O[C@H]3C[C@@](C)(OC)[C@@H](O)[C@H](C)O3)[C@@H](C)C(=O)O[C@H](CC)[C@@](C)(O)[C@H](O)[C@@H](C)C(=O)[C@H](C)C[C@@]2(C)O)O[C@H](C)C[C@@H]1N(C)C [ERYTHROMYCIN ETHYLSUCCINATE]"
  units of measure: "s"
  APTT: 21.4

----------
- Species: Rattus norvegicus
- assay notes: Open TG-GATES - Regimen: Single
- Assay type: toxicity, organism-based, Sprague-Dawley
- Set-up: regimen Single, gender Male, age 6 weeks
- measurement context: in vivo, po, 0 mg/kg, 3 h, tissue Blood, route gavage, dose level Control
Entries and their Ht values follow.

- molecule: "COc1ccc2[nH]c([S+]([O-])Cc3ncc(C)c(OC)c3C)nc2c1 (stereo not given) [OMEPRAZOLE]"
  Ht / %: 38.5
- molecule: "NC(N)=Nc1nc(CSCCC(N)=NS(N)(=O)=O)cs1 [FAMOTIDINE]"
  Ht / %: 37.2
- molecule: "COc1cc2c(c(OC)c1OC)-c1ccc(OC)c(=O)cc1[C@@H](NC(C)=O)CC2 [COLCHICINE]"
  Ht / %: 39.6
- molecule: "CN1C(=O)CN=C(c2ccccc2)c2cc(Cl)ccc21 [DIAZEPAM]"
  Ht / %: 40.5
- molecule: "CC1=C(/C=C/C(C)=C/C=C/C(C)=C/CO)C(C)(C)CCC1 [RETINOL]"
  Ht / %: 38.7
- molecule: "Cc1ccc(C)c(OCCCC(C)(C)C(=O)O)c1 [GEMFIBROZIL]"
  Ht / %: 40.2
- molecule: "CN(C)CCCN1c2ccccc2CCc2ccccc21 [IMIPRAMINE]"
  Ht / %: 40.9
- molecule: "CN(C)CCN(Cc1cccs1)c1ccccn1"
  Ht / %: 40.4
- molecule: "COC1=CC(=O)C[C@@H](C)[C@]12Oc1c(Cl)c(OC)cc(OC)c1C2=O [GRISEOFULVIN]"
  Ht / %: 39.4
- molecule: "CC/C(=C(\\c1ccccc1)c1ccc(OCCN(C)C)cc1)c1ccccc1 [TAMOXIFEN]"
  Ht / %: 39.1
